// pIC50 lookup, one value per entry
Test system: AKT protein phosphorylated on serine 473 (P-AKT-S473)
PROTOCOL DESCRIPTION: Study of pAKT expression in PC3 human prostate carcinoma cells measured by the MSD Multi-spot Biomarker Detection technique (Test B)
Type: cell-based
CONDITION: PC-3, inhibition of AKT phosphorylation (P-AKT-S473), MSD sandwich immunoassay, 1 to 2 h incubation, absolute IC50, mean of 2 experiments
Units for pIC50: none; it is -log10 of a concentration expressed in mol/L.

Example molecules with recorded pIC50:
>  <MOLECULE>
Cn1c(CC(=O)Nc2ccc(F)c(F)c2)nc(N2CCOCC2)cc1=O

>  <ENDPOINT RESULT>
6.89

$$$$
>  <MOLECULE>
O=C(Cc1nc(N2CCOCC2)cc(=O)[nH]1)N1CCc2cc(F)c(F)cc21

>  <ENDPOINT RESULT>
8.40

$$$$
>  <MOLECULE>
O=C(Cc1nc(N2CCOCC2)cc(=O)[nH]1)Nc1ccc(F)cc1Br

>  <ENDPOINT RESULT>
6.88

$$$$
>  <MOLECULE>
Cn1c(CC(=O)N2CCc3ccc(F)cc32)nc(N2CCOCC2)cc1=O

>  <ENDPOINT RESULT>
6.91

$$$$
>  <MOLECULE>
Cn1c(CC(=O)N2CCc3c(Cl)cccc32)nc(N2CCOCC2)cc1=O

>  <ENDPOINT RESULT>
7.38

$$$$

We now examine a further molecule.
Query :: Requested field: pIC50. Item: COCCOc1cc(F)ccc1NC(=O)Cc1nc(N2CCOCC2)cc(=O)[nH]1
Result :: 7.46

---

Tested on: AKT protein phosphorylated on serine 473 (P-AKT-S473)
PROTOCOL DESCRIPTION: Study of pAKT expression in PC3 human prostate carcinoma cells measured by the MSD Multi-spot Biomarker Detection technique (Test B)
Assay type: cell-based
CONDITION: PC-3, inhibition of AKT phosphorylation (P-AKT-S473), MSD sandwich immunoassay, 1 to 2 h incubation, absolute IC50, mean of 2 experiments
REPORTED ENDPOINT: log10 of IC50 (log10 of the value in nM)
# log10 transformed; quantity=IC50; unit=nM

>  <COMPOUND>
Cc1cc(F)ccc1NC(=O)Cc1nc(N2CCOCC2)cc(=O)[nH]1

>  <log10 of IC50>
1.76

$$$$
>  <COMPOUND>
O=C(Cc1nc(N2CCOCC2)cc(=O)[nH]1)Nc1cccc(F)c1

>  <log10 of IC50>
1.87

$$$$
>  <COMPOUND>
COc1cccc2c1CCN2C(=O)Cc1nc(N2CCOCC2)cc(=O)n1C

>  <log10 of IC50>
2.44

$$$$
>  <COMPOUND>
O=C(Cc1nc(N2CCOCC2)cc(=O)[nH]1)Nc1cccc(Br)c1O

>  <log10 of IC50>
1.34

$$$$
>  <COMPOUND>
CN(C)C[C@H]1CN(C(=O)Cc2nc(N3CCOCC3)cc(=O)[nH]2)c2ccccc21

>  <log10 of IC50>
1.41

$$$$
>  <COMPOUND>
O=C(Cc1nc(N2CCOCC2)cc(=O)[nH]1)Nc1cc(F)c(F)cc1F

>  <log10 of IC50>
2.46

$$$$
>  <COMPOUND>
O=C(Cc1nc(N2CCOCC2)cc(=O)[nH]1)Nc1cccc(OC2CCCC2)c1

>  <log10 of IC50>
2.16

$$$$
>  <COMPOUND>
O=C(Cc1nc(N2CCOCC2)cc(=O)[nH]1)Nc1ccc(F)c(F)c1F

>  <log10 of IC50>
1.82

$$$$

Query :: Requested field: log10 of IC50. Item: C[C@@H]1Cc2ccccc2N1C(=O)Cc1nc(N2CCOCC2)cc(=O)[nH]1
Result :: 1.08
